pIC50: −log10 of the molar value.
Literature pIC50 values, system: Serine/threonine-protein kinase pim-3 (Homo sapiens).
measurement-label: pIC50

>>> measurement("C[C@H]1C[C@@H](c2ccncc2NC(=O)c2ccc(F)c(-c3c(F)cc(N4CCOCC4)cc3F)n2)C[C@@H](N)[C@@H]1O")
9.42
>>> measurement("C[C@@H]1C[C@H](N)C[C@H](c2ccncc2NC(=O)c2ccc(F)c(-c3c(F)cc(C4(C#N)CCOCC4)cc3F)n2)C1")
8.34
>>> measurement("CO[C@H]1C[C@H](N)CN(c2ccncc2NC(=O)c2csc(-c3c(F)cccc3F)n2)C1")
7.22
>>> measurement("Nc1ccc(-c2ccc(F)cc2)nc1-c1cc2c(N3CCC[C@H](N)C3)ccnc2cn1")
8.15
>>> measurement("C[C@@H]1C[C@H](N)C[C@H](c2ccncc2NC(=O)c2csc(-c3c(F)cccc3F)n2)C1")
8.52
>>> measurement("C[C@H]1C[C@@H](c2ccncc2NC(=O)c2ccc(F)c(-c3c(F)cc(OCC(C)(C)O)cc3F)n2)C[C@@H](N)[C@@H]1O")
8.99
>>> measurement("C[C@@H]1C[C@H](N)C[C@H](c2ccncc2NC(=O)c2ccc(F)c(-c3c(F)cc(O[C@@H]4CCCOC4)cc3F)n2)C1")
8.95
>>> measurement("C[C@H]1C[C@@H](c2ccncc2NC(=O)c2ccc(F)c(-c3c(F)cc(OC4CCOCC4)cc3F)n2)C[C@@H](N)[C@@H]1O")
9.35
>>> measurement("COCCCOc1cc(F)c(-c2nc(C(=O)Nc3cnccc3[C@@H]3C[C@H](C)C[C@H](N)C3)ccc2F)c(F)c1")
9.32
>>> measurement("N[C@H]1CCCN(c2ccnc3ccc(-c4cccc(-c5nccs5)n4)cc23)C1")
8.00
>>> measurement("C[C@H]1C[C@@H](c2ccncc2NC(=O)c2ccc(F)c(-c3c(F)cc(OCCO)cc3F)n2)C[C@@H](N)[C@@H]1O")
8.72

* * *

Collected set of pIC50 measured with Serine/threonine-protein kinase pim-3 (Homo sapiens, UniProt Q86V86) across studies.
pIC50: −log10 of the molar value.
measurement-label: pIC50

>>> measurement("Nc1ccc(-c2nccs2)nc1-c1cc2c(N3CCC[C@H](N)C3)c(F)cnc2cn1")
8.15
>>> measurement("Nc1ccc(-c2cccc(S(N)(=O)=O)c2)nc1-c1cc2c(N3CCC[C@H](N)C3)ccnc2cn1")
8.10
>>> measurement("N[C@H]1C[C@H](OC(=O)c2ccccc2)CN(c2ccncc2NC(=O)c2csc(-c3c(F)cccc3F)n2)C1")
6.49
>>> measurement("O=C1NC(=O)c2c1c1c3ccc(O)cc3[nH]c1c1[nH]c3cc(O)ccc3c21")
10.52
>>> measurement("C[C@H]1C[C@@H](c2ccncc2NC(=O)c2ccc(F)c(-c3c(F)cc(C(C)(C)C#N)cc3F)n2)C[C@@H](N)[C@@H]1O")
8.64

* * *

pIC50: −log10 of the molar value.
Literature compilation of pIC50 measurements on Serine/threonine-protein kinase pim-3 (Homo sapiens, UniProt Q86V86).
// No strictly below 9 in pIC50; Yes otherwise

>>> cat("COCCOc1cc(F)c(-c2nc(C(=O)Nc3cnccc3[C@H]3C[C@@H](N)C[C@@H](C(C)C)C3)ccc2F)c(F)c1")
"Yes"
>>> cat("COc1ccc2c(c1CN1CCN[C@H](C)C1)O/C(=C\\c1n[nH]c3ncccc13)C2=O")
"No"
>>> cat("N[C@H]1C[C@@H](F)CN(c2ccncc2NC(=O)c2csc(-c3c(F)cccc3F)n2)C1")
"No"
>>> cat("C[C@H]1C[C@@H](c2ccncc2NC(=O)c2nc(-c3c(F)cc(C4COC4)cc3F)c(F)cc2N)C[C@@H](N)[C@@H]1O")
"Yes"
>>> cat("C[C@H]1CN(c2ccncc2NC(=O)c2ccc(F)c(-c3c(F)cc(CC(C)(C)O)cc3F)n2)C[C@@H](N)[C@@H]1O")
"Yes"
>>> cat("C[C@H]1C[C@@H](c2ccncc2NC(=O)c2csc(-c3c(F)cccc3F)n2)C[C@@H](N)[C@H]1F (racemic)")
"No"
>>> cat("C[C@H]1CN(c2ccncc2NC(=O)c2ccc(F)c(-c3c(F)cc(OC4COC4)cc3F)n2)C[C@@H](N)[C@@H]1O")
"Yes"
>>> cat("Nc1ccc(-c2ccccc2F)nc1-c1cc2c(N3CCC[C@H](N)C3)ccnc2cn1")
"No"
>>> cat("C[C@@H]1C[C@H](N)C[C@H](c2ccncc2NC(=O)c2ccc(F)c(-c3c(F)cc(OCC4CC4)cc3F)n2)C1")
"Yes"
>>> cat("NC1CC(C(F)(F)F)CN(c2ccncc2NC(=O)c2csc(-c3c(F)cccc3F)n2)C1 (stereo not shown)")
"No"
